B1: Pistol ribozyme (parent)
chain: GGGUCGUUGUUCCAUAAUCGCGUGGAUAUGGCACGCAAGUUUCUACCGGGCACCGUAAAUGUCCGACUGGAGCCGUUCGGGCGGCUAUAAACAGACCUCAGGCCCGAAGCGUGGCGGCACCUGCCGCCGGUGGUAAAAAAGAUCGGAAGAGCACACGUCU

variants of: B1; assay: aptazyme ON/OFF ratio, guanine; higher = stronger switching; co-transcriptional cleavage with and without guanine
The following variants are listed with their measured aptazyme ON/OFF ratio values.
experimental-readout: aptazyme ON/OFF ratio

- mutation-key: "U8G U10C U11A C13A"
  experimental-readout: "aptazyme ON/OFF ratio"
  meas-value: 1.15
- mutation-key: "U8G G9U U10C C13A"
  experimental-readout: "aptazyme ON/OFF ratio"
  meas-value: 1.04
- mutation-key: "U7G U8C G9U U10G U11A C12U C13G"
  experimental-readout: "aptazyme ON/OFF ratio"
  meas-value: 1.23
- mutation-key: "U7C U10C C12U C13G"
  experimental-readout: "aptazyme ON/OFF ratio"
  meas-value: 1.28
- mutation-key: "U8A G9A U10C C12A"
  experimental-readout: "aptazyme ON/OFF ratio"
  meas-value: 1.15
- mutation-key: "U7G U8C G9U U10A U11C C12G C13G"
  experimental-readout: "aptazyme ON/OFF ratio"
  meas-value: 1.05
- mutation-key: "U7C U8C G9C U10C U11A C12G C13U"
  experimental-readout: "aptazyme ON/OFF ratio"
  meas-value: 1.05
- mutation-key: "U7A U10C U11G C12A C13G"
  experimental-readout: "aptazyme ON/OFF ratio"
  meas-value: 1.23
- mutation-key: "U7A U8A U10C U11C C12G C13G"
  experimental-readout: "aptazyme ON/OFF ratio"
  meas-value: 1.21
- mutation-key: "U7G U8C G9A U10A U11A C12A C13U"
  experimental-readout: "aptazyme ON/OFF ratio"
  meas-value: 1.17
- mutation-key: "U7C G9U U10C U11G C12A C13U"
  experimental-readout: "aptazyme ON/OFF ratio"
  meas-value: 1.11
- mutation-key: "U7A U8C G9C U10G U11A C12A C13U"
  experimental-readout: "aptazyme ON/OFF ratio"
  meas-value: 1.06
- mutation-key: "U8G C12A C13U"
  experimental-readout: "aptazyme ON/OFF ratio"
  meas-value: 1.12
- mutation-key: "U7G U8G U10C U11G C13A"
  experimental-readout: "aptazyme ON/OFF ratio"
  meas-value: 1.26
- mutation-key: "U7G U8A G9U U10A U11C C13U"
  experimental-readout: "aptazyme ON/OFF ratio"
  meas-value: 1.02
- mutation-key: "U8A G9C U10C U11A C12U"
  experimental-readout: "aptazyme ON/OFF ratio"
  meas-value: 1.13
- mutation-key: "U8A G9C U10A U11G C12U C13A"
  experimental-readout: "aptazyme ON/OFF ratio"
  meas-value: 1.17
- mutation-key: "U7C U8C G9A U11G C13G"
  experimental-readout: "aptazyme ON/OFF ratio"
  meas-value: 1.28
- mutation-key: "U7G G9C U10A U11C C12U C13A"
  experimental-readout: "aptazyme ON/OFF ratio"
  meas-value: 1.33
- mutation-key: "U7C U8A U10A U11G C12U C13G"
  experimental-readout: "aptazyme ON/OFF ratio"
  meas-value: 1.29
- mutation-key: "U7C G9U U11G C13U"
  experimental-readout: "aptazyme ON/OFF ratio"
  meas-value: 1.15
- mutation-key: "G9U U10C U11C C12G"
  experimental-readout: "aptazyme ON/OFF ratio"
  meas-value: 1.12
- mutation-key: "U7G G9A U10G U11G C12A C13A"
  experimental-readout: "aptazyme ON/OFF ratio"
  meas-value: 1.03
- mutation-key: "U7G G9A U11G C12A C13A"
  experimental-readout: "aptazyme ON/OFF ratio"
  meas-value: 1.06
- mutation-key: "U7C G9A U10C U11C C12U C13G"
  experimental-readout: "aptazyme ON/OFF ratio"
  meas-value: 1.04
- mutation-key: "U7A U8A G9C U10A U11C C12A C13U"
  experimental-readout: "aptazyme ON/OFF ratio"
  meas-value: 1.2
- mutation-key: "G9C U11G C12G"
  experimental-readout: "aptazyme ON/OFF ratio"
  meas-value: 1.27
- mutation-key: "U7A U8C G9A U10A U11G C12U C13U"
  experimental-readout: "aptazyme ON/OFF ratio"
  meas-value: 1.31
- mutation-key: "U7G U8C G9C U10A C12G C13G"
  experimental-readout: "aptazyme ON/OFF ratio"
  meas-value: 1.05
- mutation-key: "U7G U10C C12U"
  experimental-readout: "aptazyme ON/OFF ratio"
  meas-value: 1.2
- mutation-key: "U7A U8A G9A U10G U11A C13A"
  experimental-readout: "aptazyme ON/OFF ratio"
  meas-value: 1.01
- mutation-key: "U8G G9U U10A U11C C13G"
  experimental-readout: "aptazyme ON/OFF ratio"
  meas-value: 1.03
- mutation-key: "U7G G9U U10A C12A C13U"
  experimental-readout: "aptazyme ON/OFF ratio"
  meas-value: 1.75
- mutation-key: "U7C U8A G9A U11C C12A C13G"
  experimental-readout: "aptazyme ON/OFF ratio"
  meas-value: 1.15
- mutation-key: "U7C U8A C12G C13A"
  experimental-readout: "aptazyme ON/OFF ratio"
  meas-value: 1.14
- mutation-key: "U8C G9U U10A U11G C13G"
  experimental-readout: "aptazyme ON/OFF ratio"
  meas-value: 1.11
- mutation-key: "U8A G9A U10C U11A C12A C13A"
  experimental-readout: "aptazyme ON/OFF ratio"
  meas-value: 1.16
- mutation-key: "U7A U8C G9U U11G C12G C13A"
  experimental-readout: "aptazyme ON/OFF ratio"
  meas-value: 1.22
- mutation-key: "U7A U8G U11G C12A C13A"
  experimental-readout: "aptazyme ON/OFF ratio"
  meas-value: 1.18
- mutation-key: "U7A U8G G9U U10G C12A C13A"
  experimental-readout: "aptazyme ON/OFF ratio"
  meas-value: 1.27
- mutation-key: "U7G U8G G9C U10A U11C C12U"
  experimental-readout: "aptazyme ON/OFF ratio"
  meas-value: 1.08
- mutation-key: "U7C U8G G9A U10C C12U"
  experimental-readout: "aptazyme ON/OFF ratio"
  meas-value: 2.39
- mutation-key: "U7C U8A G9C U10A C12A"
  experimental-readout: "aptazyme ON/OFF ratio"
  meas-value: 1.2
- mutation-key: "U7G U8C G9U U10A U11G C12U"
  experimental-readout: "aptazyme ON/OFF ratio"
  meas-value: 1.33
- mutation-key: "U7A U8C U10A U11A C12G C13G"
  experimental-readout: "aptazyme ON/OFF ratio"
  meas-value: 1.31
- mutation-key: "U7A U8G G9A U11C C12G"
  experimental-readout: "aptazyme ON/OFF ratio"
  meas-value: 1.56
